- System: New Zealand White rabbits
- test summary: Acute skin irritation/corrosive potential, scored on the Draize scale
- Type: in vivo
- assay context: 0.5 mL undiluted, approximately 4 hours exposure, semi-occlusive, evaluated up to 72 hours
recorded metric: Classification

[[record]]
compound = "CCCCCCCCC(=O)N(C)C [N,N-Dimethylnonanamide]"
subject_of_test = "New Zealand White rabbits"
measured = "Severe irritant"

[[record]]
compound = "CCCCCCCCN1CCCC1=O [N-octylpyrrolidin-2-one, reference compound]"
subject_of_test = "New Zealand White rabbits"
measured = "Severe irritant"


###

- test summary: Phase separation temperature of compatibilizer / Zerol 150 alkylbenzene oil / R134a mixtures (cloud point on cooling)
- Type: physicochemical
- assay context: near 25.0 wt % Zerol 150 : 25.0 wt % compatibilizer : 50.0 wt % R134a, cooled in one degree intervals
Phase Separation Temperature of 4 deg C or higher: 1. Under 4 deg C: 0.

Query :: Given the entry CCCCCCCC[C@]1(C)CCC(=O)O1 (stereo in doubt) [5-methyl-5-octyl-dihydro-furan-2-one] , answer whether its Phase Separation Temperature meets or surpasses 4 deg C.
Result :: 0

Query :: Phase Separation Temperature >= 4 deg C for CCCCCCCC1CCCC(=O)O1 (centres unmarked) ?
Result :: 0

Query :: Would you say CCCC[C@@H]1C[C@H](C)OC1=O shows Phase Separation Temperature at minimum 4 deg C?
Result :: 1

Query :: Determine whether measured Phase Separation Temperature meets or exceeds 4 deg C for CCCCC=C1CC(C)OC1=O (centres unmarked)
Result :: 0

Query :: Does Phase Separation Temperature meet or surpass 4 deg C for CCCCCCCCC1CCC(=O)O1 (centres unmarked) ?
Result :: 0

Query :: Confirm if Phase Separation Temperature reported for the compound CC(CC[C@@H]1C[C@H](C)OC1=O)CC(C)(C)C (relative stereo) is 4 deg C or above.
Result :: 0

Query :: Please check the record CCC=C1CC(C)OC1=O (centres unmarked) and state if its Phase Separation Temperature is at or above 4 deg C.
Result :: 1

Query :: Phase Separation Temperature >= 4 deg C for CC1C/C(=C/C2CCCCC2)C(=O)O1 (centres unmarked) ?
Result :: 0

Query :: Textbook exercise: given the entry CCCCCCCC1CCOC1=O (centres unmarked) [3-heptyldihydro-furan-2-one] , state whether its Phase Separation Temperature is greater than or equal to 4 deg C.
Result :: 0

Query :: hey, is Phase Separation Temperature for this one >= 4 deg C? CCCCCCC1CCC(=O)O1 (centres unmarked)
Result :: 0

Query :: Item CC[C@@H]1C[C@H](C)OC1=O (relative stereo) [cis-3-ethyl-5-methyl-dihydro-furan-2-one] with Phase Separation Temperature of 4 deg C or above?
Result :: 1

Query :: Form field: Phase Separation Temperature at least 4 deg C? Entry: CCCCCCCCN1CCCC1=O [N-octylpyrrolidin-2-one, reference compound]
Result :: 0

Query :: Could you please find out whether CCCCOC(=O)c1ccccc1C(=O)OCCCC [dibutyl phthalate, reference compound] has Phase Separation Temperature that meets 4 deg C or exceeds it?
Result :: 1

Query :: API: above_or_equal(metric=Phase Separation Temperature, cutoff=4 deg C) for item CCCCCCC1CCOC1=O (centres unmarked) [3-hexyldihydro-furan-2-one]
Result :: 1

Query :: Identify whether the reported Phase Separation Temperature of the following compound is 4 deg C or greater: CCCCCCC=C1CC(C)OC1=O (centres unmarked)
Result :: 0

Query :: Does the reported Phase Separation Temperature for CCCCCCCC=C1CC(C)OC1=O (centres unmarked) fall at or above the 4 deg C mark?
Result :: 0

Query :: Does the compound CCC[C@@H]1C[C@H](C)OC1=O have recorded Phase Separation Temperature that is 4 deg C or more?
Result :: 1

Query :: For this compound, is measured Phase Separation Temperature 4 deg C or higher? CCCCC1CCC(=O)O1 (centres unmarked)
Result :: 1
